These measurements were taken from patent US9895346B2.

test system: bladder cancer cell line J82; assay: In vitro cell inhibition assay (crystal violet), bladder cancer J82; format: cell-based, human; details: J82, 5.0 μM
property: Inhibition rate on human cancer cells (%)
# unit: % | format: bare number

Solved cases below.
compound	Inhibition rate on human cancer cells, %
CO/C=C(/C(=O)OC)c1ccccc1COc1cc(-c2ccc(Cl)cc2)nn1C	100
N.N.[Cl][Pt][Cl] [Cisplatin, reference compound]	20
CCCCc1c(C)c2ccc(OCc3ccccc3/C(=C\OC)C(=O)OC)cc2oc1=O	100

Could you now consider this next compound?
In: Provide the documented Inhibition rate on human cancer cells with bladder cancer cell line J82 as the system for CO/C=C(/C(=O)OC)c1ccccc1Oc1cc(Oc2ccccc2C#N)ncn1
Out: 0
